Taken from patent US20250333501A1.

- testSystem: T1, CLDN6 endogenously expressed by human cancer cell lines (ARK2, OVCA429) (human, UniProt P56747 1-220)
- T1 construct: Untagged endogenous protein; also called Endogenous CLDN6+
- T1 sequence: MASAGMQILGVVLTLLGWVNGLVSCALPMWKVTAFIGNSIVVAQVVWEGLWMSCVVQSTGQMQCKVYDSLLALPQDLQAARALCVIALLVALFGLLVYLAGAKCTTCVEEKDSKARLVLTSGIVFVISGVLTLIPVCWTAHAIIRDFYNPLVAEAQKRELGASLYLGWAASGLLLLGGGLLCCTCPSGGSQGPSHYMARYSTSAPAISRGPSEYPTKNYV
- protocolNotes: FACS, 0.3 µg Ab, ARK2 cells
measure: FACS fluorescence
Answer field: number only, no words.

Some binders with recorded FACS fluorescence:
- binder: "AB1-Chim (antibody, V domains shown, 'chim' is the pre-humanized form (parental variable regions); also called pre-humanized (chimeric) form of AB1) VH: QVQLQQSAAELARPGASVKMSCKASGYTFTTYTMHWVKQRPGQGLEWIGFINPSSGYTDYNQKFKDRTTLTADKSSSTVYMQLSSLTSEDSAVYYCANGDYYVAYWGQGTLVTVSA VL: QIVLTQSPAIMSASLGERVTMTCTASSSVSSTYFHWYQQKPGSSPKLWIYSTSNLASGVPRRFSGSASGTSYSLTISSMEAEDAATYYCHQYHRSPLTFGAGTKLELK"
  measure: "FACS fluorescence"
  dataValue: 58800
- binder: "AB9-3 (antibody, V domains shown, also called Humanized AB 9-3) VH: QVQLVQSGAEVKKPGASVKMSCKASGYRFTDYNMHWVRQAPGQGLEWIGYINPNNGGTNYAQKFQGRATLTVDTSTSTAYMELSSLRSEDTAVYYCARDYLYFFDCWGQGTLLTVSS VL: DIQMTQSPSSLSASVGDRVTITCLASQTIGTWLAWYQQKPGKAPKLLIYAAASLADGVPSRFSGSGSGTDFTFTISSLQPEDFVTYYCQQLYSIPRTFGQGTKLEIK"
  measure: "FACS fluorescence"
  dataValue: 1140

Please examine the following record next.
Prompt: What FACS fluorescence value was documented for this binder, AB3-chim (antibody, V domains shown, 'chim' is the pre-humanized form (parental variable regions); also called pre-humanized (chimeric) form of AB3) VH: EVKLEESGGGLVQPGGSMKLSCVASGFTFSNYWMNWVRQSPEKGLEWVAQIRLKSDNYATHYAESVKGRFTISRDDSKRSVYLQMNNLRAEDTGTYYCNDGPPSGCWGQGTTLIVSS VL: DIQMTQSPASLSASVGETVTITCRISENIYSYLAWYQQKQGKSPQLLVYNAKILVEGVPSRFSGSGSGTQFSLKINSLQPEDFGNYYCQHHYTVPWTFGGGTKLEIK ?
Completion: 17100
